- Procedure Text: Metabolic stability in human liver microsomes assessed as percent of residual drug in presence of NADPH incubated for 40 mins by LC-ESI-MS/MS method
- Assay type: ADME, Microsome
- Cond: liver microsomes, read-out: Stability
Property Measured: remaining at 40 min

[[record]]
item_smiles = "Nc1ncnc2c1nc(Sc1cc3c(cc1Br)OCO3)n2CCC1CCN(C(=O)C2CCCC2)CC1"
reported_result = "0%"

[[record]]
item_smiles = "Nc1ncnc2c1nc(Sc1cc3c(cc1Br)OCO3)n2CCC1CCOCC1"
reported_result = "0%"

[[record]]
item_smiles = "Nc1ncnc2c1nc(Sc1cc3c(cc1Br)OCO3)n2CCc1ccccc1F"
reported_result = "< 1%"

